Value source: patent US20150299125A1

# Experiment summary: Solubility in biorelevant fasted state simulated intestinal fluid (FaSSIF)
# Type: physicochemical
# Condition set: 25 °C, fassif, kinetic from dmso stock, Solubility
Record form. Attribute: solubility. Fill in for each entry.
The reply should be a number in µM, with the unit left off.

// Input: Cc1cc(Nc2cc(C(F)F)ccn2)nc(-c2ccc([C@](C)(O)[C@H]3CC[C@H](C(=O)OCOC(=O)CCO)CC3)nc2)c1 [Example 3-9] . Output its solubility only. 160

Consider the molecule Cc1cc(Nc2cc(C(F)F)ccn2)nc(-c2ccc([C@](C)(O)[C@H]3CC[C@H](C(=O)OCCC(=O)N(C)C)CC3)nc2)c1 [Example 1-27] . State its measured solubility. 50

###

# Experimental system: recombinant human GST-Syk (Homo sapiens, UniProt P43405)
# Construct: purchased Carna Biosciences 08-176
# Experiment summary: Homogeneous Time-Resolved Fluorescence (HTRF) assay for the recombinant human Syk enzyme
# Assay type: biochemical
# Condition set: recombinant human GST-Syk 5 pM, ATP 25 μM, read-out: IC50
For each entry below, report its IC50 value.
State just the number; it will be interpreted in nM.

Annotate the compound Cc1cc(Nc2cc(C(F)F)ccn2)nc(-c2ccc([C@](C)(O)[C@H]3CC[C@H](C(=O)O[C@H]4C[C@H](N)C4)CC3)nc2)c1 [Example 1-19] with its measured IC50. 4.4

Given Cc1cc(Nc2cc(C(F)F)ccn2)nc(-c2ccc([C@](C)(O)[C@H]3CC[C@H](C(=O)OC(C)OC(=O)c4cnn(C)c4)CC3)nc2)c1 (single isomer, unassigned) [Example 3-2a] , respond with its IC50. 19.1

Quickly give me recorded IC50 for `Cc1cc(Nc2cc(C(F)F)ccn2)nc(-c2ccc([C@](C)(O)[C@H]3CC[C@H](C(=O)OCOC(=O)[C@@H](O)Cc4ccc(O)cc4)CC3)nc2)c1` 4.1

Identify the reported IC50 for the following entry. `Cc1cc(Nc2cc(C(F)F)ccn2)nc(-c2ccc([C@](C)(O)[C@H]3CC[C@H](C(=O)OC[N+]4(CC#N)CCCCC4)CC3)nc2)c1` 0.6

###

# Experiment summary: Solubility in biorelevant fasted state simulated intestinal fluid (FaSSIF)
# Type: physicochemical
# Condition set: 25 °C, fassif, kinetic from dmso stock, Solubility
Provide the reported solubility of each item.
Write it as a number; the unit µM goes unstated.

Identify the reported solubility for the following entry. Cc1cc(Nc2cc(C(F)F)ccn2)nc(-c2ccc([C@](C)(O)[C@H]3CC[C@H](C(=O)OC[N+](C)(C)C4CCCCC4)CC3)nc2)c1 [Example 5-11] 200

Name the recorded solubility of the item CCOCCOCCOC(=O)OC(OC(=O)[C@H]1CC[C@H]([C@@](C)(O)c2ccc(-c3cc(C)cc(Nc4cc(C(F)F)ccn4)n3)cn2)CC1)C(C)C (stereo partly drawn) [Example 2-16] in your answer. 48

Consider the compound CSCCCOC(=O)[C@H]1CC[C@H]([C@@](C)(O)c2ccc(-c3cc(C)cc(Nc4cc(C(F)F)ccn4)n3)cn2)CC1 [Example 1-9] and give its recorded solubility. 43

###

# Experimental system: recombinant human GST-Syk (Homo sapiens, UniProt P43405)
# Construct: purchased Carna Biosciences 08-176
# Experiment summary: Homogeneous Time-Resolved Fluorescence (HTRF) assay for the recombinant human Syk enzyme
# Assay type: biochemical
# Condition set: recombinant human GST-Syk 5 pM, ATP 25 μM, read-out: IC50
Quantity name: IC50 (nM)
Note: unit nM is implicit; provide only the numeric part.

Answer with the recorded IC50 of `CCOCCOCCOCCOC(=O)OCOC(=O)[C@H]1CC[C@H]([C@@](C)(O)c2ccc(-c3cc(C)cc(Nc4cc(C(F)F)ccn4)n3)cn2)CC1` only. 7.5

For the molecule `CC[N+](COC(=O)[C@H]1CC[C@H]([C@@](C)(O)c2ccc(-c3cc(C)cc(Nc4cc(C(F)F)ccn4)n3)cn2)CC1)(C(C)C)C(C)C` , give its measured IC50 value. 1.9

Please give the documented IC50 of `Cc1cc(Nc2cc(C(F)F)ccn2)nc(-c2ccc([C@](C)(O)[C@H]3CC[C@H](C(=O)OCOC(=O)OCCCCCCN)CC3)nc2)c1` 19.9

Supply measured IC50 of COCCN(C)C(=O)OC(C)OC(=O)[C@H]1CC[C@H]([C@@](C)(O)c2ccc(-c3cc(C)cc(Nc4cc(C(F)F)ccn4)n3)cn2)CC1 (single isomer, unassigned) [Example 4-1b] in your reply. 12.9
